- TARGET_OR_SYSTEM: T1, biotinylated goat anti-human kappa light chain
- T1 construct: positive control of the ELISA
- METHOD: ELISA, positive control; also: test concentration or dose not given here
In this section we review reported optical density values for a set of binders.
Answer format: numeric, OD implied, no suffix.

Below: 4 binders and their reported optical density.
BINDER: 376_G02 (antibody, V domains shown, Group I) VH: EVQLLESGGGLVQPGGSLRLSCAASGFTFSDYGMNWVRQAPGKGLEWVSGINYNGGYTSYADSVKGRFTISRDNSKNTLYLQMNSLRAEDTAVYYCARAANWHDTALDYWGQGTLVTVSS VL: DIQMTQSPSSLSASVGDRVTITCRASQSISRYLNWYQQKPGKAPKLVIYAATSLASGVPSRFSGSGSGTDFTLTISSLQPEDFATYYCQQSYDNPLTFGGGTKVEIK
EXPERIMENTAL_ENDPOINT: optical density
ASSAY_VALUE: 3.55

BINDER: 368_B10 (antibody, V domains shown, Group I) VH: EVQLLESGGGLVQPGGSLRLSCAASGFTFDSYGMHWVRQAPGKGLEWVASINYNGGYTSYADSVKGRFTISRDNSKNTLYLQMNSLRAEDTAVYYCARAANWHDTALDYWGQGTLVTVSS VL: DIQMTQSPSSLSASVGDRVTITCRASQSILTYLNWYQQKPGKAPKLVIYAATSRASGVPSRFSGSGSGTDFTLTISSLQPEDFATYYCQQSDELPLTFGGGTKVEIK
EXPERIMENTAL_ENDPOINT: optical density
ASSAY_VALUE: 3.02

BINDER: 368_C12 (antibody, V domains shown, Group II) VH: EVQLLESGGGLVQPGGSLRLSCAASGFTFDSYGMHWVRQAPGKGLEWVASINYNGGYTSYADSVKGRFTISRDNSKNTLYLQMNSLRAEDTAVYYCARAATWHDTHLDYWGQGTLVTVSS VL: DIQMTQSPSSLSASVGDRVTITCRASQSILTYLNWYQQKPGKAPKLLIYAATSRASGVPSRFSGSGSGTDFTLTISSLQPEDFATYYCQQSDSNPLTFGGGTKVEIK
EXPERIMENTAL_ENDPOINT: optical density
ASSAY_VALUE: 3.62

BINDER: 367_F08 (antibody, V domains shown, Group II) VH: EVQLLESGGGLVQPGGSLRLSCAASGFTFSSYGMHWVRQAPGKGLEWVSSINYNSGYTSYADSVKGRFTISRDNSKNTLYLQMNSLRAEDTAVYYCARAATWHDTHLDYWGQGTLVTVSS VL: DIQMTQSPSSLSASVGDRVTITCRASQSILSYVNWYQQKPGKAPKLVIYAATSRASGVPSRFSGSGSGTDFTLTISSLQPEDFATYYCQQSNELPLTFGGGTKVEIK
EXPERIMENTAL_ENDPOINT: optical density
ASSAY_VALUE: 3.54

Q: Endpoint output: optical density of 375_D02 (antibody, V domains shown, Group II) VH: EVQLLESGGGLVQPGGSLRLSCAASGFTFSSYSMNWVRQAPGKGLEWVSNINYNGGYTSYADSVKGRFTISRDNSKNTLYLQMNSLRAEDTAVYYCARAATWHDTHLDYWGQGTLVTVSS VL: DIQMTQSPSSLSASVGDRVTITCRASQSILTYLNWYQQKPGKAPKLLIYAASSLQSGVPSRFSGSGSGTDFTLTISSLQPEDFATYYCQQSYELPLTFGGGTKVEIK . Value?
Ans: 3.2
